# studySystem: T1, human CD137-Fc (human, biotin-labeled)
# T1 construct: if 90 already holds the Fc, drop the second piece; also called biotin-labeled human CD137 fused to human IgG1 Fc fragment; biotin-human CD137-Fc; not shown: human IgG1 Fc fragment
# T1 sequence (chain, as listed by the source): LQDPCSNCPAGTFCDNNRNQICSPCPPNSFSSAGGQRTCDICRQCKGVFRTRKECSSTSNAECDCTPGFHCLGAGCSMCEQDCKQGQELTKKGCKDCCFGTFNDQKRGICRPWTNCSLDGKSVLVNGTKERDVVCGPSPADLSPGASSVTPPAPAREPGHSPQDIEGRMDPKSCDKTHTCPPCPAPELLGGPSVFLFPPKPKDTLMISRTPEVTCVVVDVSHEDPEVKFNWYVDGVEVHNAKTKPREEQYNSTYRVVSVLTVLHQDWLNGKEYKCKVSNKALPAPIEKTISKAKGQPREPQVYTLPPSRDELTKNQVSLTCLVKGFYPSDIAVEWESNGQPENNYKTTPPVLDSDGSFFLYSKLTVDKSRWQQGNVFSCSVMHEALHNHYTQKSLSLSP
# assay: bead ELISA on biotin-human CD137-Fc, 0 pmol free CD3e peptide
Listed here: items and their measured ELISA signal.
// return a plain number; no unit text

Worked set:
INSERT INTO assay_data (binder, endpointlabel, observedvalue) VALUES
  ('dBBDu217 (antibody, V domains shown, Human IgG1; light chain GLS3000 (kappa)) VH: QVQLVESGGGLVQPGRSLRLSCAASGFTFSNAWMHWVRQAPGKGLEWVAQIKDRQQGYATYYAPSVKGRFTISRDDSKNSIYLQMNSLKTEDTAVYYCRFVHYHLAGYGYYGVDAWGQGTTVTVSS VL: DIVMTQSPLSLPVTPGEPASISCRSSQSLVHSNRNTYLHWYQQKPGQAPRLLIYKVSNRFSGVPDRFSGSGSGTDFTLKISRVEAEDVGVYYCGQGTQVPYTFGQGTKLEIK', 'ELISA signal', 19100),
  ('dBBDu173 (antibody, V domains shown, Human IgG1; light chain GLS3000 (kappa)) VH: QVQLVESGGGLVQPGRSLRLSCAASGFTFSNAWMHWVRQAPGKGLEWVAQIKDKGNLYAAYYAPSVKGRFTISRDDSKNSIYLQMNSLKTEDTAVYYCHYVHYASAGGGLSAYGVDAWGQGTTVTVSS VL: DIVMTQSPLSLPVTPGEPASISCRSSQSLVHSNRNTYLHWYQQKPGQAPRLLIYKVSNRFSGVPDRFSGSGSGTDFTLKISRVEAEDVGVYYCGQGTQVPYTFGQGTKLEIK', 'ELISA signal', 6540);

Switching to the query record.
Entry under review: dBBDu179 (antibody, V domains shown, Human IgG1; light chain GLS3000 (kappa)) VH: QVQLVESGGGLVQPGRSLRLSCAASGFTFSNAWMHWVRQAPGKGLEWVAQIKDRSNQYATYYAPSVKGRFTISRDDSKNSIYLQMNSLKTEDTAVYYCHYVHYASASTVLPAFGVDAWGQGTTVTVSS VL: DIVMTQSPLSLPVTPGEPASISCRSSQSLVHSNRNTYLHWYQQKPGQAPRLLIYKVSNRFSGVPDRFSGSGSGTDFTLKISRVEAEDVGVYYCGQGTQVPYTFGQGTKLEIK . Reported ELISA signal? 61000
